target: hCA IX (Homo sapiens); test: hCA IX inhibition, stopped-flow assay; format: biochemical; details: stopped-flow technique; mean from three different assays, errors ±5–10%
measurement_name: Ki (nM)

>>> reported_value("NS(=O)(=O)c1ccc(CCn2c(SCC(=O)NN=Cc3ccccc3Cl)nc3ccccc3c2=O)cc1")
26.4
>>> reported_value("CC(=NNC(=O)CSc1nc2ccccc2c(=O)n1CCc1ccc(S(N)(=O)=O)cc1)c1ccccc1Cl")
45.3
>>> reported_value("CC(=NNC(=O)CSc1nc2ccccc2c(=O)n1CCc1ccc(S(N)(=O)=O)cc1)c1ccccc1")
55.7
>>> reported_value("CC(=NNC(=O)CSc1nc2ccccc2c(=O)n1CCc1ccc(S(N)(=O)=O)cc1)c1ccccn1")
68.2
>>> reported_value("NS(=O)(=O)c1ccc(CCn2c(SCC(=O)NN=Cc3c(Cl)cccc3Cl)nc3ccccc3c2=O)cc1")
49.2
>>> reported_value("CC(=NNC(=O)CSc1nc2ccccc2c(=O)n1CCc1ccc(S(N)(=O)=O)cc1)c1ccc(N)cc1")
5.8
>>> reported_value("NS(=O)(=O)c1ccc(CCn2c(SCC(=O)NN=Cc3ccc(Cl)c(Cl)c3)nc3ccccc3c2=O)cc1")
34.8
>>> reported_value("CC(=NNC(=O)CSc1nc2ccccc2c(=O)n1CCc1ccc(S(N)(=O)=O)cc1)c1ccc(F)cc1")
28.5

---

molecular target: hCA II (Homo sapiens, UniProt P00918); assay: hCA II inhibition, stopped-flow assay; type: biochemical; conditions: stopped-flow technique; mean from three different assays, errors ±5–10%
The following compounds are shown together with reported Ki values.
measurement_name: Ki (nM)

>>> reported_value("CN(C)c1ccc(C=NNC(=O)CSc2nc3ccccc3c(=O)n2CCc2ccc(S(N)(=O)=O)cc2)cc1")
82.1
>>> reported_value("CC(=NNC(=O)CSc1nc2ccccc2c(=O)n1CCc1ccc(S(N)(=O)=O)cc1)c1ccc(C)cc1")
126
>>> reported_value("NS(=O)(=O)c1ccc(CCn2c(SCC(=O)NN=Cc3ccccc3[N+](=O)[O-])nc3ccccc3c2=O)cc1")
569
>>> reported_value("Cc1ccccc1C=NNC(=O)CSc1nc2ccccc2c(=O)n1CCc1ccc(S(N)(=O)=O)cc1")
69.4

---

# reported melting point; entries follow
measurement_name: melting point

>>> reported_value("CC(=NNC(=O)CSc1nc2ccccc2c(=O)n1CCc1ccc(S(N)(=O)=O)cc1)c1ccc(C)cc1")
"288 to 290 °C"
>>> reported_value("CC(=NNC(=O)CSc1nc2ccccc2c(=O)n1CCc1ccc(S(N)(=O)=O)cc1)c1ccccc1")
"260 to 261 °C"
>>> reported_value("Cc1ccccc1C=NNC(=O)CSc1nc2ccccc2c(=O)n1CCc1ccc(S(N)(=O)=O)cc1")
"239 to 240 °C"
>>> reported_value("NS(=O)(=O)c1ccc(CCn2c(SCC(=O)NN=Cc3ccccc3F)nc3ccccc3c2=O)cc1")
"276 to 277 °C"
>>> reported_value("CC(=NNC(=O)CSc1nc2ccccc2c(=O)n1CCc1ccc(S(N)(=O)=O)cc1)c1ccc(N)cc1")
"308 to 309 °C"
>>> reported_value("CC(=NNC(=O)CSc1nc2ccccc2c(=O)n1CCc1ccc(S(N)(=O)=O)cc1)c1ccccc1N")
"264 to 265 °C"

---

Collected Ki values appear next to each entry.
molecular target: UniProtKB O43570; test: hCA XII inhibition, stopped-flow assay; type: biochemical; settings: stopped-flow technique; mean from three different assays, errors ±5–10%
measurement_name: Ki (nM)

>>> reported_value("NS(=O)(=O)c1ccc(CCn2c(SCC(=O)NN=Cc3ccc(Cl)c(Cl)c3)nc3ccccc3c2=O)cc1")
63.4
>>> reported_value("CC(=NNC(=O)CSc1nc2ccccc2c(=O)n1CCc1ccc(S(N)(=O)=O)cc1)c1ccc(N)cc1")
15.9
>>> reported_value("Cc1ccccc1C=NNC(=O)CSc1nc2ccccc2c(=O)n1CCc1ccc(S(N)(=O)=O)cc1")
63.5
>>> reported_value("NS(=O)(=O)c1ccc(CCn2c(SCC(=O)NN=Cc3ccccc3F)nc3ccccc3c2=O)cc1")
22.9
>>> reported_value("CC(=NNC(=O)CSc1nc2ccccc2c(=O)n1CCc1ccc(S(N)(=O)=O)cc1)c1ccc(C)cc1")
57.5
>>> reported_value("CC(=NNC(=O)CSc1nc2ccccc2c(=O)n1CCc1ccc(S(N)(=O)=O)cc1)c1ccc(Br)cc1")
88.8
>>> reported_value("CC(=NNC(=O)CSc1nc2ccccc2c(=O)n1CCc1ccc(S(N)(=O)=O)cc1)c1ccc(Cl)cc1")
61.2

---

Below, each entry is listed with its recorded melting point.
measurement_name: melting point

>>> reported_value("CC(=NNC(=O)CSc1nc2ccccc2c(=O)n1CCc1ccc(S(N)(=O)=O)cc1)c1ccccn1")
"300 to 301 °C"
>>> reported_value("NS(=O)(=O)c1ccc(CCn2c(SCC(=O)NN=Cc3ccccc3Cl)nc3ccccc3c2=O)cc1")
"288 to 290 °C"
>>> reported_value("CC(=NNC(=O)CSc1nc2ccccc2c(=O)n1CCc1ccc(S(N)(=O)=O)cc1)c1ccc(Cl)cc1")
"278 to 280 °C"
>>> reported_value("NS(=O)(=O)c1ccc(CCn2c(SCC(=O)NN=Cc3c(Cl)cccc3Cl)nc3ccccc3c2=O)cc1")
"296 to 297 °C"
>>> reported_value("CC(=NNC(=O)CSc1nc2ccccc2c(=O)n1CCc1ccc(S(N)(=O)=O)cc1)c1cccc(Cl)c1")
"297 to 298 °C"
>>> reported_value("NS(=O)(=O)c1ccc(CCn2c(SCC(=O)N/N=C/c3ccccc3)nc3ccccc3c2=O)cc1")
"296 to 298 °C"
>>> reported_value("NS(=O)(=O)c1ccc(CCn2c(SCC(=O)NN=Cc3ccc([N+](=O)[O-])cc3)nc3ccccc3c2=O)cc1")
"296 to 297 °C"
>>> reported_value("CN(C)c1ccc(C=NNC(=O)CSc2nc3ccccc3c(=O)n2CCc2ccc(S(N)(=O)=O)cc2)cc1")
"280 to 281 °C"
>>> reported_value("CC(=NNC(=O)CSc1nc2ccccc2c(=O)n1CCc1ccc(S(N)(=O)=O)cc1)c1ccc(Br)cc1")
"302 to 303 °C"
>>> reported_value("NNC(=O)CSc1nc2ccccc2c(=O)n1CCc1ccc(S(N)(=O)=O)cc1")
"253 to 254 °C"
>>> reported_value("NS(=O)(=O)c1ccc(CCn2c(SCC(=O)NN=Cc3ccc(Cl)cc3)nc3ccccc3c2=O)cc1")
"288 to 289 °C"
>>> reported_value("NS(=O)(=O)c1ccc(CCn2c(SCC(=O)NN=Cc3cccnc3)nc3ccccc3c2=O)cc1")
"263 to 264 °C"
>>> reported_value("NS(=O)(=O)c1ccc(CCn2c(SCC(=O)NN=Cc3ccc(Cl)cc3Cl)nc3ccccc3c2=O)cc1")
"304 to 305 °C"
>>> reported_value("CC(=NNC(=O)CSc1nc2ccccc2c(=O)n1CCc1ccc(S(N)(=O)=O)cc1)c1ccccc1Cl")
"273 to 275 °C"
>>> reported_value("NS(=O)(=O)c1ccc(CCn2c(SCC(=O)NN=Cc3ccc(F)cc3)nc3ccccc3c2=O)cc1")
"292 to 293 °C"

---

target: hCA XII (Homo sapiens, UniProt O43570); assay: hCA XII inhibition, stopped-flow assay; assay type: biochemical; conditions: selectivity index (SI), ratio of Ki hCA II to Ki hCA XII
Sequence (O43570 25-354): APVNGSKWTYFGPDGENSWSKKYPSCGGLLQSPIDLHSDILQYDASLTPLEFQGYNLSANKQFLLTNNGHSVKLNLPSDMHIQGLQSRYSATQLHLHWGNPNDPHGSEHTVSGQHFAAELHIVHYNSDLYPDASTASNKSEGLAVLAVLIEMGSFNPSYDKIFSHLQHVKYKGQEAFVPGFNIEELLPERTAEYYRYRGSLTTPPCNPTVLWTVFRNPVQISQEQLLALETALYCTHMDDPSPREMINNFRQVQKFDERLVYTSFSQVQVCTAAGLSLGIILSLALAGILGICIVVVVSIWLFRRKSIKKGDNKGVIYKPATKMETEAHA
Below, each of the molecules is paired with its reported Selectivity Analysis hCA II/XII value.
measurement_name: Selectivity Analysis hCA II/XII

>>> reported_value("CCOC(=O)CSc1nc2ccccc2c(=O)n1CCc1ccc(S(N)(=O)=O)cc1")
0.61
>>> reported_value("NS(=O)(=O)c1ccc(CCn2c(SCC(=O)NN=Cc3c(Cl)cccc3Cl)nc3ccccc3c2=O)cc1")
2.95
>>> reported_value("Cc1ccccc1C=NNC(=O)CSc1nc2ccccc2c(=O)n1CCc1ccc(S(N)(=O)=O)cc1")
1.09
>>> reported_value("NS(=O)(=O)c1ccc(CCn2c(SCC(=O)NN=Cc3ccc(F)cc3)nc3ccccc3c2=O)cc1")
3.13
>>> reported_value("CN(C)c1ccc(C=NNC(=O)CSc2nc3ccccc3c(=O)n2CCc2ccc(S(N)(=O)=O)cc2)cc1")
12.07
>>> reported_value("CC(=NNC(=O)CSc1nc2ccccc2c(=O)n1CCc1ccc(S(N)(=O)=O)cc1)c1cccnc1")
0.31
>>> reported_value("CC(=NNC(=O)CSc1nc2ccccc2c(=O)n1CCc1ccc(S(N)(=O)=O)cc1)c1ccc(N)cc1")
3.72

---

target: hCA XII (Homo sapiens); experiment: hCA XII inhibition, stopped-flow assay; format: biochemical; conditions: stopped-flow technique; mean from three different assays, errors ±5–10%
measurement_name: Ki (nM)

>>> reported_value("CC(=NNC(=O)CSc1nc2ccccc2c(=O)n1CCc1ccc(S(N)(=O)=O)cc1)c1ccccn1")
28.5
>>> reported_value("CC(=NNC(=O)CSc1nc2ccccc2c(=O)n1CCc1ccc(S(N)(=O)=O)cc1)c1cccc(Cl)c1")
46.9
>>> reported_value("NS(=O)(=O)c1ccc(CCn2c(SCC(=O)NN=Cc3ccc(Cl)cc3)nc3ccccc3c2=O)cc1")
67.8
>>> reported_value("CN(C)c1ccc(C=NNC(=O)CSc2nc3ccccc3c(=O)n2CCc2ccc(S(N)(=O)=O)cc2)cc1")
6.8
>>> reported_value("CC(=NNC(=O)CSc1nc2ccccc2c(=O)n1CCc1ccc(S(N)(=O)=O)cc1)c1cccnc1")
34.7
>>> reported_value("NS(=O)(=O)c1ccc(CCn2c(SCC(=O)NN=Cc3ccccc3[N+](=O)[O-])nc3ccccc3c2=O)cc1")
21.4
>>> reported_value("NS(=O)(=O)c1ccc(CCn2c(SCC(=O)NN=Cc3ccc([N+](=O)[O-])cc3)nc3ccccc3c2=O)cc1")
30.5
